procedure_summary: chemical genetic growth profiling, strain panel (AID 1159580);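 further: tested at 20 µM; growth read once vehicle control cultures reached saturation at 30 °C; 1 = growth at the plate median or of vehicle wells; lower values mean less growth of the strain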
measurement_conditions: S. cerevisiae deletion strains, growth OD, locus YJL115W, strain asf1
About 2,000 (36%) of roughly 5,500 compounds were called active. Another 18% or so got no clear call; they are omitted. No stated cut-off is given here; in the data, active means normalized growth mostly below about 0.91 (no sharp cut-off); inconclusive means no clear call, values can overlap the other calls; inactive means mostly above about 0.92. The list shows a part of the results.
API: response.call in 1 for active, 0 for inactive

Consider the following illustrative entries.
# molecule, assigned_class
measured = [
    ("NS(=O)(=O)c1cc2c(cc1Cl)NC(C1CC3C=CC1C3)NS2(=O)=O (stereo not drawn)", 0),
    ("CN(C)CCC(c1ccc(Br)cc1)c1ccccn1 (stereo not drawn)", 0),
    ("CC(CN(C)C)CN1c2ccccc2Sc2ccccc21 (stereo not drawn)", 0),
    ("CCN(CC)C(C)CN1c2ccccc2Sc2ccccc21 (stereo not drawn)", 0),
    ("COc1c(Cl)ccc(Cl)c1C(=O)O", 0),
]

## Input Give the logged outcome of this assay for the following molecule: CC(CN1c2ccccc2Sc2ccccc21)N(C)C (stereo not drawn)
## Output 0

## Input Record request — test call for O=c1cc(-c2ccccc2)oc2cccc(O)c12
## Output 0

## Input Assay result, entry O=c1cc(-c2ccccc2)oc2cc(O)c(O)c(O)c12 — outcome?
## Output 1

## Input Returns: the outcome recorded for O=[N+]([O-])c1cccc2cn[nH]c12 in this assay.
## Output 0

## Input Test call for this molecule, please: O=c1[nH]cnc2[nH]ncc12
## Output 0

## Input // return assay outcome for O=[N+]([O-])c1cccc2c(Br)[nH]nc12
## Output 0

## Input Hi, do you know how CNCCCN1c2ccccc2CCc2ccccc21 came out in this test?
## Output 0

## Input Test call, this molecule: COc1cc(C)c(C(=O)Oc2cc(C)c(C(=O)O)c(O)c2C)c(OC)c1C
## Output 0

* * *

procedure_summary: chemical genetic growth profiling, strain panel (AID 1159580);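 further: tested at 20 µM; growth read once vehicle control cultures reached saturation at 30 °C; 1 = growth at the plate median or of vehicle wells; lower values mean less growth of the strain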
measurement_conditions: S. cerevisiae deletion strains, growth OD, locus YLR384C, strain iki3, hits give low values
About 2,000 (36%) of roughly 5,500 compounds were called active. Not shown: some 18% with an inconclusive outcome. The list shows a part of the results.
Catalogue of normalized growth readings, one per entry.
Number, no unit, nothing else.

Consider the following illustrative entries.
# molecule, measured_parameter, test_result
measured = [
    ("NC(Cc1ccc(F)cc1)C(=O)O (stereo not drawn)", "normalized growth", 1.02),
    ("O=[N+]([O-])c1cccc2cn[nH]c12", "normalized growth", 0.996),
]

Alright, here's another molecule for you.
## Input Find the recorded normalized growth belonging to O=[N+]([O-])c1cccc2c(Br)[nH]nc12 and report it.
## Output 0.987

* * *

procedure_summary: chemical genetic growth profiling, strain panel (AID 1159580);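 further: tested at 20 µM; growth read once vehicle control cultures reached saturation at 30 °C; 1 = growth at the plate median or of vehicle wells; lower values mean less growth of the strain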
measurement_conditions: S. cerevisiae deletion strains, growth OD, locus YDR334W, strain swr1, hits give low values
The campaign covered roughly 5,500 compounds. About 2,000 (36%) were called active. Inconclusive results (about 18%) are left out. This is one part of the list.
The entries below come with measured normalized growth values attached.
Field format: numeric only.

## Input Any idea what its normalized growth is? The compound is CCC(=O)Nc1ccc(Cl)c(Cl)c1
## Output 0.996

## Input # lookup: normalized growth of C=C1[C@H]2CC[C@@]3(C)[C@H](c4ccoc4)OC(=O)C[C@]13O[C@H]1C[C@H](O)C(C)(C)[C@H](CC(=O)OC)[C@]12C
## Output 1.02

## Input // query normalized growth value for entry COc1ccc(C(=O)CC(=O)c2ccc(C(C)(C)C)cc2)cc1
## Output 1.02

## Input Please look up its normalized growth: C[C@@H]1O[C@@H](O[C@H]2C[C@@H](O)[C@]3(CO)C4C(CC[C@]3(O)C2)[C@@]2(O)CC[C@H](C3=CC(=O)OC3)[C@@]2(C)C[C@H]4O)[C@H](O)[C@H](O)[C@H]1O (some centres undefined)
## Output 1.03

## Input What measured normalized growth goes with C=C1C2=CC(=O)O[C@@H](c3ccoc3)[C@]2(C)CCC1[C@@]1(C)C=CC(=O)C(C)(C)[C@@H]1CC(=O)OC (some centres undefined) ?
## Output 0.982

## Input Fill blank: measured normalized growth of the compound NCC(CC(=O)O)c1ccc(Cl)cc1 (centres undefined) is ____.
## Output 1

## Input Would you kindly share the measured normalized growth for C[C@@H]1CC2C3CCC4=CC(=O)C=C[C@]4(C)[C@@]3(F)[C@@H](O)C[C@]2(C)[C@H]1C(=O)CO (some centres undefined) ?
## Output 1

## Input Value lookup for normalized growth; key = COC(=O)CCCOc1ccc(Cl)cc1Cl
## Output 0.974

## Input Requested read-out: normalized growth. Entry: CN(C)CCOC(=O)C(c1ccccc1)C1(O)CCCC1 (centres undefined)
## Output 0.984
